# experiment.summary: Half life in Sprague-Dawley rat at 5 mg/kg, po
# Format: ADME, organism-based
# Design: dose 5 mg/kg, route oral
# test.settings: in vivo
experimental.endpoint: half-life
Please format your answer as a value with the unit trailing.

Query string: If you can, please state the reported half-life value of COC(=O)N1CCC(CN2CCC(CNC(=O)c3cccc4[nH]c(C(C)C)nc34)CC2)CC1 .
Result string: 1.6 h

###

# experiment.summary: Cmax in Sprague-Dawley rat at 5 mg/kg, po
# Format: ADME, organism-based
# Design: dose 5 mg/kg, route oral
# test.settings: in vivo
experimental.endpoint: Cmax (ng/mL)
Give the value, in units of ng/mL, as a plain number.

Query string: If you can, please state the reported Cmax value of COC(=O)N1CCC(CN2CCC(CNC(=O)c3cccc4[nH]c(C(C)C)nc34)CC2)CC1 .
Result string: 818

###

// pKi lookup, one value per entry
# target: 5-hydroxytryptamine receptor 3A (Homo sapiens, UniProt P46098)
# Sequence (P46098 whole entry): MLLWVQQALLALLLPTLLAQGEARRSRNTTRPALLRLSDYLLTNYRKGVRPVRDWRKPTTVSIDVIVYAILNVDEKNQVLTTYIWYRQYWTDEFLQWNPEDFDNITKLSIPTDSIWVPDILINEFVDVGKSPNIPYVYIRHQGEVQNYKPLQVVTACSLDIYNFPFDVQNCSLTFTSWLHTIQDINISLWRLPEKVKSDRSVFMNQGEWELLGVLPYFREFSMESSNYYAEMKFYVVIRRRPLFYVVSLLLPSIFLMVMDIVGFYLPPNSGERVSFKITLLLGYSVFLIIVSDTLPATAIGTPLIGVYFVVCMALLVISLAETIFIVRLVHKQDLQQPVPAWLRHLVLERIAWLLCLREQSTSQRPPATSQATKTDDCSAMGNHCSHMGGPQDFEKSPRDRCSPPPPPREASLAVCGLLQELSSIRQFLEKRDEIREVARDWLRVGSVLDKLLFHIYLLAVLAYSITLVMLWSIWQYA
# experiment.summary: Binding affinity to human recombinant 5HT3 receptor
For clarity, pKi is expressed as the negative log10 of concentration in mol/L.

Worked cases, answers included:
[
  {
    "compound": "COC(=O)N(C)CC(O)CN1CCC(CNC(=O)c2cccc3nc(C(C)C)[nH]c23)CC1 (centres undefined)",
    "target": "5-hydroxytryptamine receptor 3A (Homo sapiens, UniProt P46098)",
    "pKi": 4.30
  },
  {
    "compound": "CC(=O)N(C)CC(O)CN1CCC(CNC(=O)c2cccc3nc(C(C)C)[nH]c23)CC1 (centres undefined)",
    "target": "5-hydroxytryptamine receptor 3A (Homo sapiens, UniProt P46098)",
    "pKi": 4.20
  },
  {
    "compound": "CC(=O)N1CCC(CN2CCC(CNC(=O)c3cccc4[nH]c(C(C)C)nc34)CC2)CC1",
    "target": "5-hydroxytryptamine receptor 3A (Homo sapiens, UniProt P46098)",
    "pKi": 4.00
  }
]

Now examine the next entry.
Query string: Which measured pKi belongs to CCc1nc2c(C(=O)NCC3CCN(CC(O)CN4CCN(S(C)(=O)=O)CC4)CC3)cccc2[nH]1 (centres undefined) , tested on 5-hydroxytryptamine receptor 3A (Homo sapiens, UniProt P46098)?
Result string: 4.10

###

# target: 5-hydroxytryptamine receptor 4 (Homo sapiens, UniProt Q13639)
# Sequence (Q13639 whole entry): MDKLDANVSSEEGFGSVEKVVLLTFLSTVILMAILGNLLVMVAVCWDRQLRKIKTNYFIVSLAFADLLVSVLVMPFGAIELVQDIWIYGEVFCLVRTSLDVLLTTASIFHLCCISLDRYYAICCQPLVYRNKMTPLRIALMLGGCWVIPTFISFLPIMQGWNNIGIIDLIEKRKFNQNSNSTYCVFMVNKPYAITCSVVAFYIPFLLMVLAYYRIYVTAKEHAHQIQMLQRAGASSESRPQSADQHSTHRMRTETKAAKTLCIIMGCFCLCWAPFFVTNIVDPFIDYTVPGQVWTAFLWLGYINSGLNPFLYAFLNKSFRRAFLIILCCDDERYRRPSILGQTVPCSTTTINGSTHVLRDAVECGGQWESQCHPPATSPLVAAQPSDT
# experiment.summary: Agonist activity at human recombinant 5HT4 receptor assessed as cAMP accumulation relative to 5-HT
# Assay type: functional
experimental.endpoint: Intrinsic activity (%)
Give the value, in units of %, as a plain number.

Worked cases, answers included:
[
  {
    "molecule": "CS(=O)(=O)N1CCN(CC(O)CN2[C@@H]3CC[C@H]2C[C@@H](NC(=O)c2cccc4[nH]cnc24)C3)CC1 (stereo not given in full)",
    "unit.of.measure": "%",
    "Intrinsic activity": 54
  },
  {
    "molecule": "CC(C)c1nc2c(C(=O)NCC3CCN(CC(O)CN4CCN(S(C)(=O)=O)CC4)CC3)cc(Cl)cc2[nH]1 (stereo not given)",
    "unit.of.measure": "%",
    "Intrinsic activity": 0
  },
  {
    "molecule": "CC(C)c1nc2c(C(=O)NCC3CCN(CC4CCN(S(C)(=O)=O)CC4)CC3)cccc2[nH]1",
    "unit.of.measure": "%",
    "Intrinsic activity": 63
  },
  {
    "molecule": "CC(F)(F)c1nc2c(C(=O)NCC3CCN(CC(O)CN4CCN(S(C)(=O)=O)CC4)CC3)cccc2[nH]1 (stereo not given)",
    "unit.of.measure": "%",
    "Intrinsic activity": 59
  },
  {
    "molecule": "COC(=O)N(C)CC(O)CN1CCC(CNC(=O)c2cccc3[nH]c(C(C)C)nc23)CC1 (stereo not given)",
    "unit.of.measure": "%",
    "Intrinsic activity": 64
  },
  {
    "molecule": "CS(=O)(=O)N1CCN(CC(O)CN2CCC(CNC(=O)c3cccc4[nH]c(C5CC5)nc34)CC2)CC1 (stereo not given)",
    "unit.of.measure": "%",
    "Intrinsic activity": 64
  }
]

Query string: If you can, please state the reported Intrinsic activity value of CS(=O)(=O)N1CCN(CC(O)CN2CCC(CNC(=O)c3cccc4[nH]c(-c5ccccc5)nc34)CC2)CC1 (stereo not given) .
Result string: 41

Query string: If you can, please state the reported Intrinsic activity value of CC(=O)N(C)CC(O)CN1CCC(CNC(=O)c2cccc3[nH]c(C(C)C)nc23)CC1 (stereo not given) .
Result string: 64

Query string: If you can, please state the reported Intrinsic activity value of CC(=O)N1CCN(CCN2CCC(CNC(=O)c3cccc4[nH]c(C(C)C)nc34)CC2)CC1 .
Result string: 76

Query string: If you can, please state the reported Intrinsic activity value of COC(=O)N1CCC(CN2CCC(CNC(=O)c3cccc4[nH]c(C(C)C)nc34)CC2)CC1 .
Result string: 83
